System: KM12 colon
testProtocol: NCI tumour cell line growth inhibition, 48 h
propertyName: TGI

Use these answered entries as a reference point.
>>> measuredresult("Cc1ccc(NC(=O)c2cccc(OP(=O)(O)Nc3ccc(C)cc3)c2)cc1")
"> 100 µM"
>>> measuredresult("CCn1c2ccccc2n2c(=O)c3c(c(C#N)c12)CCCC3")
"> 100 µM"
>>> measuredresult("CCCCOC(=O)NC(=O)c1cn(C2CCCCC2)c(=O)[nH]c1=O")
"> 100 µM"

I'm hoping you can list TGI for every compound here, please.
1. COc1cc2c(cc1OC)CCc1cc(OC)c(OC)cc1CC2
2. COC(=O)C1C(=O)C=CN([C@H](C)c2ccccc2)[C@@H]1Cc1ccc(OC)c(OCc2ccccc2)c1I (stereo not given in full)

Reply:
["> 100 µM", "52 µM"]

====

Would you kindly list TGI for each of these compounds?
System: SR leukemia
testProtocol: NCI tumour cell line growth inhibition, 48 h
Where a SMILES comes first, the peptide text is derived from it. The star is where a group is joined. Cbz = O=C(OCc1ccccc1)*; Boc = CC(C)(C)OC(=O)*; tBu = CC(C)(C)*

>>> measuredresult("COc1ccc(-c2nnc(COc3ccc(NC(=O)Nc4ccc(Cl)c(C(F)(F)F)c4)cc3F)o2)cc1")
"4.09 µM"
>>> measuredresult("Cc1ccc(/C=C2\\CCC/C(=C\\c3ccc(O)c(CN4CCCCC4)c3)C2=O)cc1")
"8.62 µM"
>>> measuredresult("O=C(O)Cc1cccc2c1OC(c1ccccc1)C(Cl)(C(=O)c1ccccc1)C2=O (stereo not given)")
"60.6 µM"
>>> measuredresult("COC(=O)CCc1cc(O)c2c(c1)C(C(=O)OC)C(c1ccc(O)c(O)c1)O2 (stereo not given)")
"> 25.5 µM"
>>> measuredresult("COc1ccc(N2C(=O)C3ON(C(C(N)=O)c4ccccc4)C(c4cc5ccccc5c5ccccc45)C3C2=O)cc1 (stereo not given)")
"> 50 µM"

I'm hoping you can list TGI for every compound here, please.
1. COc1ccccc1N1CCN(CCCN2/C(=C(\O)c3ccccc3)C(=O)c3c(C)cc(C)nc3S2(=O)=O)CC1
2. Cc1ccc(NC(=O)c2cccc(OP(=O)(O)Nc3ccc(C)cc3)c2)cc1
3. CNc1nc(N)c(N=O)c(Nc2ccc(Br)cc2)n1
4. CC(C)c1cc2c(O)c(c1)Cc1cc(C(C)C)cc(c1O)Cc1cc(C(C)C)cc(c1O)Cc1cc(C(C)C)cc(c1O)C2
5. CC(=O)OC1(C)C=CC(=O)C=C1
6. CC(OC(C)(C)C)C(NC(=O)C(CCCCNC(=O)OC(C)(C)C)NC(=O)C(Cc1c[nH]c2ccccc12)NC(=O)C(Cc1ccccc1)NC(=O)OCc1ccccc1)C(=O)NC(Cc1ccccc1)C(=O)O (stereo not given) (Cbz-FWK(Boc)T(tBu)F-OH; configuration not given here)
7. Cc1ccc(C)c(COCCOCn2ccc(N)nc2=O)c1
8. CC(=O)N[C@@H](Cc1ccc(O)cn1)C(=O)NCc1cccc(Cl)c1

Reply:
1. > 100 µM
2. > 100 µM
3. > 100 µM
4. > 100 µM
5. > 100 µM
6. > 100 µM
7. > 100 µM
8. > 100 µM

I'm hoping you can list TGI for every compound here, please.
1. Nc1ncn(C2CC(O)C(CO)O2)c(=O)n1 (stereo not given)
2. CN1C2CCC1CC(CCNC(c1ccccc1)c1ccccc1)C2 (stereo not given)
3. O=C1OC(c2ccco2)=N/C1=C\c1cccc([N+](=O)[O-])c1
4. C/C(=C1/CCC/C(=C(/C)c2ccccc2)C1=O)c1ccccc1
5. Cc1ccc(NC(=S)N/N=C(/c2ccccc2)c2ccccn2)cc1
6. COc1ncc(-c2ccc3ncnc(Nc4cccc(Cl)c4)c3c2)cc1NS(=O)(=O)CCN1CCOCC1

Reply:
["> 141 µM", "40.3 µM", "> 100 µM", "43.5 µM", "> 20.5 µM", "> 100 µM"]
